Collected literature values of pKi measured for hCRTH2 receptor (Homo sapiens (Human)).
pKi: −log10 of the molar value.
attributeMeasured: pKi

Field: example entries. Status: answers known.
O=C(O)CN1C(=O)C2(CC(=O)N(Cc3ccc(Cl)c(Cl)c3)C2=O)c2cc(Cl)ccc21 (stereo not shown)	7.00
COc1ccccc1CN1C(=O)CC2(C1=O)C(=O)N(CC(=O)O)c1ccc(Cl)cc12 (stereo not shown)	6.82
Cc1nn(Cc2ccc(-c3cc4ccc(C(F)(F)F)cc4[nH]3)cc2)c(C)c1CC(=O)O	9.52
Cc1nn(Cc2ccc(-c3cc4ncccc4[nH]3)cc2)c(C)c1CC(=O)O	6.51
CCc1nn(Cc2ccc(-c3nc4c(F)cc(F)cc4[nH]3)cc2F)c(CC)c1CC(=O)O	8.96

(P) Cc1nn(Cc2ccc(-c3nc4c(F)cccc4[nH]3)cc2)c(C)c1CC(=O)O
(Q) Cc1c(S(=O)(=O)Nc2cccnc2)c2cc(F)ccc2n1CC(=O)O
Record comparison, field pKi: mark the lower of P and Q . Respond with the label that goes with your answer.
Q
(Q: 5.37, P: 8.06)

(I) O=C(O)CN1C(=O)C2(CC(=O)N(Cc3cccs3)C2=O)c2cc(Cl)ccc21 (stereo not shown)
(II) Cc1c(CC(=O)O)c2ccc(Cl)nc2n1Cc1ccc(S(C)(=O)=O)cc1
Record comparison, field pKi: mark the lower of I and II . Respond with the label that goes with your answer.
I

(I) O=C(O)CN1C(=O)C2(CC(=O)N(Cc3cccc(Cl)c3)C2=O)c2cc(Cl)ccc21 (stereo not shown)
(II) CN(Cc1ccc(-c2nccnc2NS(=O)(=O)c2ccccc2Cl)cc1)c1ccccc1F
Kindly identify which of I and II has the larger recorded pKi value. Respond with the label that goes with your answer.
I
(I: 7.14, II: 5.41)

----------
Collected literature values of Ki measured for hCRTH2 receptor (Homo sapiens (Human), UniProt Q9Y5Y4).

O=C(O)Cc1c2n(c3c(F)cccc13)CC(n1nncc1Cc1ccc(F)cc1)CC2 (single isomer, unassigned)	> 100 nM
Cc1c(C2=NN(CCc3ccccc3)C(=O)[C@@H]3CC=CC[C@H]23)c2ccccc2n1CC(=O)O (stereo in doubt)	< 100 nM

Which Ki is listed for "CCc1nc2c(Cl)ccc(OCC(=O)O)c2c(OC(F)F)c1Cc1ccc(C(=O)N2CCCC2)cc1" ?
< 100 nM

----------
Collected literature values of Ki measured for hCRTH2 receptor (Homo sapiens (Human)).

Field: example entries. Status: answers known.
CCc1nc2c(F)ccc(OCC(=O)O)c2c(OC(F)F)c1Cc1ccc(F)cc1F	< 100 nM
C=CCN1C(c2c(C)n(CC(=O)O)c3ccc(Cl)cc23)c2ccccc2S1(=O)=O (stereo not shown)	< 1000 nM

Which Ki is listed for "CCCN1N=C(c2c(C)n(CC(=O)O)c3ccc(F)cc23)c2ccccc2S1(=O)=O" ?
< 100 nM

Which Ki is listed for "CN(C(=O)C1(c2ccc(Cl)cc2)CCCC1)[C@@H]1CCc2c(CC(=O)O)c3ccccc3n2C1" ?
≤ 5 nM

----------
Collected literature values of Ki measured for hCRTH2 receptor (Homo sapiens (Human), UniProt Q9Y5Y4).

What Ki appears in the records for this compound with hCRTH2 receptor (Homo sapiens (Human), UniProt Q9Y5Y4)? "O=C(O)Cn1cc(-c2nn(Cc3ccccc3)c(=O)c3ccccc23)c2ccccc21"
< 1000 nM

What Ki appears in the records for this compound with hCRTH2 receptor (Homo sapiens (Human), UniProt Q9Y5Y4)? "CCc1nc2c(Cl)ccc(OCC(=O)O)c2c(OC(F)F)c1Cc1ccc(S(C)(=O)=O)cc1"
< 100 nM

What Ki appears in the records for this compound with hCRTH2 receptor (Homo sapiens (Human), UniProt Q9Y5Y4)? "CCc1c(Cc2ccc(Cl)cc2)c(C)nc2c(Cl)ccc(OCC(=O)O)c12"
< 100 nM

What Ki appears in the records for this compound with hCRTH2 receptor (Homo sapiens (Human), UniProt Q9Y5Y4)? "CCc1nc2c(F)ccc(OCC(=O)O)c2c(OC(F)F)c1Cc1ccc(C(=O)N2CCCC2)cc1"
< 100 nM

What Ki appears in the records for this compound with hCRTH2 receptor (Homo sapiens (Human), UniProt Q9Y5Y4)? O=C(O)CN1C(=O)C2(CC(=O)N(Cc3csc(-c4cccc(Cl)c4)n3)C2=O)c2cc(Cl)ccc21 (stereo not shown)
6 nM

What Ki appears in the records for this compound with hCRTH2 receptor (Homo sapiens (Human), UniProt Q9Y5Y4)? "Cc1nc2c(Cl)ccc(OCC(=O)NS(=O)(=O)c3ccccc3)c2c(C)c1Cc1ccc(Cl)cc1"
< 10000 nM

What Ki appears in the records for this compound with hCRTH2 receptor (Homo sapiens (Human), UniProt Q9Y5Y4)? "Cc1c(Cc2ccc(Cl)cc2)c(OC(F)F)nc2c(Cl)ccc(OCC(=O)O)c12"
< 100 nM

What Ki appears in the records for this compound with hCRTH2 receptor (Homo sapiens (Human), UniProt Q9Y5Y4)? "CCCc1nc2cc(N(Cc3ccccc3)C(C)=O)ccc2n1CC(=O)O"
< 10000 nM

What Ki appears in the records for this compound with hCRTH2 receptor (Homo sapiens (Human), UniProt Q9Y5Y4)? "Cc1nc2c(Cl)ccc(OCC(=O)O)c2c(OC(F)F)c1Sc1ccc(Cl)cc1"
< 100 nM

What Ki appears in the records for this compound with hCRTH2 receptor (Homo sapiens (Human), UniProt Q9Y5Y4)? "COc1ccc(CN2N=C(c3c(C)n(CC(=O)O)c4ccc(F)cc34)c3ccccc3S2(=O)=O)cc1"
< 100 nM

----------
Collected literature values of Ki measured for hCRTH2 receptor (Homo sapiens (Human), UniProt Q9Y5Y4).

Field: example entries. Status: answers known.
CCCc1nc2cc(N(Cc3cccc(Cl)c3Cl)S(=O)(=O)c3ccc(F)cc3)ccc2n1CC(=O)O	< 100 nM
Cc1c(C2=NN(Cc3ccccc3)C(=O)C3CC=CCC23)c2ccccc2n1CC(=O)O (stereo not shown)	< 1000 nM
COc1ccc2[nH]c(-c3ccc(Cn4nc(C)c(CC(=O)O)c4C)cc3)nc2c1	7.6 nM
Cc1c(Cc2ccc(F)cc2Cl)c(OC(F)F)nc2c(F)ccc(OCC(=O)O)c12	< 100 nM

What Ki appears in the records for this compound with hCRTH2 receptor (Homo sapiens (Human), UniProt Q9Y5Y4)? COc1ccc2c(c1)c(C1c3ccccc3S(=O)(=O)N1CCc1ccccc1)cn2CC(=O)O (stereo not shown)
< 10000 nM

What Ki appears in the records for this compound with hCRTH2 receptor (Homo sapiens (Human), UniProt Q9Y5Y4)? "Cc1c(C2=NN(Cc3cccc(F)c3)S(=O)(=O)c3ccccc32)c2cc(F)ccc2n1CC(=O)O"
< 100 nM

----------
Collected literature values of Ki measured for hCRTH2 receptor (Homo sapiens (Human)).

Field: example entries. Status: answers known.
Cc1c(C2c3ccccc3S(=O)(=O)N2CCC(C)C)c2ccccc2n1CC(=O)O (centres unmarked)	< 1000 nM
Cc1c(Cc2ccc(Cl)cc2)c(OC(F)F)nc2c(Cl)ccc(OC(C)C(=O)O)c12 (centres unmarked)	< 100 nM
Cc1c(C2NS(=O)(=O)c3ccccc32)c2cc(F)ccc2n1CC(=O)O (centres unmarked)	< 1000 nM

Which Ki is listed for "Cc1c(Cc2ccc(Cl)cc2Cl)c(OC(F)F)nc2c(F)ccc(O[C@@H](C)C(=O)O)c12" ?
< 100 nM

Which Ki is listed for CN(C)c1ccc(-c2cn(C3CCc4c(CC(=O)O)c5ccccc5n4C3)nn2)cc1 (centres unmarked) ?
> 100 nM

Which Ki is listed for "Cc1c(CC(=O)O)c2cc(F)ccc2n1Cc1ccccc1S(=O)(=O)c1ccc(F)cc1" ?
66 nM

Which Ki is listed for CC(O)(c1ccc(F)cc1)c1cnnn1C1CCc2c(CC(=O)O)c3cccc(F)c3n2C1 (single isomer, unassigned) ?
10 to 50 nM

Which Ki is listed for O=C(O)Cn1cc(C2NS(=O)(=O)c3ccccc32)c2ccc(Cl)cc21 (centres unmarked) ?
< 1000 nM

----------
Collected literature values of Ki measured for hCRTH2 receptor (Homo sapiens (Human)).

Which Ki is listed for "C[C@@H](NC(=O)c1ccc2c(=O)n(-c3ccc(C#N)cc3)c(CCCCC(=O)O)cc2c1)c1ccc(F)cc1" ?
8.84 nM

Which Ki is listed for "CCc1nc2c(F)ccc(OCC(=O)O)c2c(OC(F)F)c1Cc1ccc(S(C)(=O)=O)cc1" ?
< 100 nM

Which Ki is listed for "Cc1c(Cc2ccc(Cl)cc2)c(OC(F)F)nc2c(F)ccc(OCC(=O)O)c12" ?
< 100 nM

Which Ki is listed for Cc1c(C2c3ccc(F)cc3S(=O)(=O)N2Cc2cccc(F)c2)c2ccccc2n1CC(=O)O (stereo not shown) ?
< 1000 nM
